Target: UniProt:P04585
Experiment: biochemical
Settings: read-out: HIV-1 Protease % Inhib, dose 10.000 uM
Provide the recorded inhibition at 10 µM for the entries that follow.
Entry format: amount then unit.

What does the data say about its inhibition at 10 µM? Entry: CCC(c1cccc(NC(=O)CCc2ccc(O)cc2)c1)c1c(O)c2ccccc2oc1=O (stereo not shown)
10.6%

Entry to check: Nc1cccc(S(=O)(=O)Nc2cccc(C(c3c(O)c4c(oc3=O)CCCCCC4)C3CC3)c2)c1 (stereo not shown)
103%

Entry to check: O=c1oc2c(c(O)c1C(c1cccc(NS(=O)(=O)c3ccc(C(F)(F)F)cc3)c1)C1CC1)CCCCCC2 (stereo not shown)
107%

Then there is this molecule:
What does the data say about its inhibition at 10 µM? Entry: CCOc1ccc2c(O)c(C(CC)c3ccccc3)c(=O)oc2c1 (stereo not shown)
69.7%
